# System: Eleusine indica (ELEIN)
# method-notes: Post-emergence efficacy, glasshouse spray test
# Assay type: in vivo
# settings: Eleusine indica, post-emergence, 312 h; application rate 1000 g/Ha; evaluated after 13 days; read-out: Control of weed species ELEIN after post-emergence application (100=total damage to plant; 0=no damage to plant)
measured-parameter: pest or weed control at 1000 g/ha (%)
One number for each entry, in %.

Batch of 6 molecules: report pest or weed control at 1000 g/ha for each.
1. O=S(=O)([O-])CC[n+]1ccc2cc(Br)ccc2n1 [Compound A34]
2. O=S(=O)([O-])OCCC[n+]1ccc2ccccc2n1 [Compound A27]
3. O=S(=O)(O)CC[n+]1ccc2ccc(-c3ccccc3)cc2n1 [Compound A78]
4. O=C(O)c1ccccc1C[n+]1ccc2ccccc2n1 [Compound A55]
5. COC(=O)CCC[n+]1ccc2ccccc2n1 [Compound A16, 2,2,2-trifluoroacetate]
6. COC(=O)CC[n+]1cc(C)c2ccccc2n1 [Compound A63]

Outgoing:
1: 30; 2: 80; 3: 70; 4: 10; 5: 60; 6: 40
